# reported pIC50; entries follow
target: Cyclin-dependent kinase 4/cyclin D1 (Homo sapiens); assay: Inhibition of human CDK4/cyclin D1 by ELISA
Sequence (P11802 whole entry): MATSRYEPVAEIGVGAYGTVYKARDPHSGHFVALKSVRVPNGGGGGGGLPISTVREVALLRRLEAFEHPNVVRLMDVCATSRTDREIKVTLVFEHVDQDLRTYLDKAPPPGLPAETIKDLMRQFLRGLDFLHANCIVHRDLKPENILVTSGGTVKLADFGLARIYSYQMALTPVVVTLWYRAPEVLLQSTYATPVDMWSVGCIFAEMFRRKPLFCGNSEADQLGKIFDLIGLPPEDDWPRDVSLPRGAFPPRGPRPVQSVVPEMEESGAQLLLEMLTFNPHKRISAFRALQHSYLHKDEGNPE
Sequence (P24385 whole entry, further chain): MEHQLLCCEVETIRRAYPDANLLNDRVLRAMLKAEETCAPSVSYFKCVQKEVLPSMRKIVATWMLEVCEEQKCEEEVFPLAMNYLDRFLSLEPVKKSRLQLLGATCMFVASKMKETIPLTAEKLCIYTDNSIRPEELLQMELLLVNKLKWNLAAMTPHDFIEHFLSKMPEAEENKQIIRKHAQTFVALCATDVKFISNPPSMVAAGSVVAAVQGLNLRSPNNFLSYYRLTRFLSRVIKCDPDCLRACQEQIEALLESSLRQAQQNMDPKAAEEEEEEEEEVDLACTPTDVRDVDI
pIC50: −log10 of the molar value.
reported endpoint: pIC50

# smiles input, reported measurement
data = [
    ("CCc1cc2c(c3cc(OC)c(OC)cc13)C(=O)NC2=O", 4.72),
    ("Cn1cc(C2=C(c3ccc(Cl)cc3Cl)C(=O)NC2=O)c2ccccc21", 4.49),
    ("COc1cc2c(C)cc3c(c2cc1OC)C(=O)NC3=O", 4.80),
    ("COC(=O)c1cccc2c3c(c(CC(C)C)cc12)C(=O)NC3=O", 5.22),
]
